# TESTED_TARGET: wild-type Choristoneura fumiferana EcR (CfEcR-DEF) (Choristoneura fumiferana, UniProt O77255)
# Sequence (O77255 219-541): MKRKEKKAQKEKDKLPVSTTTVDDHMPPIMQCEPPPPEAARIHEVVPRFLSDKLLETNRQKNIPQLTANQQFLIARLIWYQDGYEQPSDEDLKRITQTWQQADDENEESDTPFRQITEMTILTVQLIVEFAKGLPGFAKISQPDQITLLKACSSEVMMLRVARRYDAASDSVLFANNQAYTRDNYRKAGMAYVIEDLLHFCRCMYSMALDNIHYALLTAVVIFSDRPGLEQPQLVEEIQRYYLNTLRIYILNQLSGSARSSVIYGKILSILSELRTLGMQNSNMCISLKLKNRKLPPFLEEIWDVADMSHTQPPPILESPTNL
# Sequence (P28702 299-449 partner): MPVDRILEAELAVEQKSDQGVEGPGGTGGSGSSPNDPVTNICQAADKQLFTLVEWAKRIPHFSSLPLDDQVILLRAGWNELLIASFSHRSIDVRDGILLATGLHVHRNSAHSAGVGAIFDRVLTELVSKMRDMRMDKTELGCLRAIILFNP
# ASSAY_NAME: Two-hybrid gene switch assay, wild-type CfEcR-DEF (GAL4-EcR / VP16-RXR-USP chimera, luciferase) in NIH3T3 cells
# ASSAY_CONDITIONS: NIH3T3, 48 h, read-out: rel max FI (PoA), CF
METRIC: Emax (%)
Give just the numeric value; % need not be written.

Recorded results for 2 compounds are shown here.
CO[C@H](CCC(C)(C)O)[C@](C)(O)C1CC[C@@]2(O)C3=CC(=O)C4C[C@@H](O)[C@@H](O)CC4(C)C3CCC12C (some centres unmarked) [20E-22-methyl ether] | 0
CO[C@@H]1C[C@H]2C(=O)C=C3[C@H](CC[C@]4(C)[C@@H]([C@@](C)(O)[C@@H](CCC(C)(C)O)OC)CC[C@@]34O)[C@@]2(C)C[C@@H]1O [20E-3,22-dimethyl ether] | 0

The compound listed as CO[C@H]1C[C@@]2(C)[C@@H](C[C@H]1O)C(=O)C=C1[C@@H]2CC[C@]2(C)[C@@H]([C@@](C)(O)[C@H](O)CCC(C)(C)O)CC[C@@]12O [20E-2-methyl ether] has a reported Emax of 0

The compound identified as CO[C@H]1C[C@@]2(C)[C@@H](C[C@H]1O)C(=O)C=C1[C@@H]2CC[C@]2(C)[C@@H]([C@@](C)(O)[C@@H](CCC(C)(C)O)OC)CC[C@@]12O [20E-2,22-dimethyl ether] registered its Emax at 0

// CO[C@@H]1C[C@H]2C(=O)C=C3[C@H](CC[C@]4(C)[C@@H]([C@@](C)(O)[C@H](O)CCC(C)(C)O)CC[C@@]34O)[C@@]2(C)C[C@@H]1O [20E-3-methyl ether] : Emax value = 1

----------
Recorded pEC50 by entry
# TESTED_TARGET: MsEcR (GAL4-EcR DEF with VP16-RXR-USP chimera) (Manduca sexta)
# Sequence (P49883 whole entry, change not shown, the tested form may be a part): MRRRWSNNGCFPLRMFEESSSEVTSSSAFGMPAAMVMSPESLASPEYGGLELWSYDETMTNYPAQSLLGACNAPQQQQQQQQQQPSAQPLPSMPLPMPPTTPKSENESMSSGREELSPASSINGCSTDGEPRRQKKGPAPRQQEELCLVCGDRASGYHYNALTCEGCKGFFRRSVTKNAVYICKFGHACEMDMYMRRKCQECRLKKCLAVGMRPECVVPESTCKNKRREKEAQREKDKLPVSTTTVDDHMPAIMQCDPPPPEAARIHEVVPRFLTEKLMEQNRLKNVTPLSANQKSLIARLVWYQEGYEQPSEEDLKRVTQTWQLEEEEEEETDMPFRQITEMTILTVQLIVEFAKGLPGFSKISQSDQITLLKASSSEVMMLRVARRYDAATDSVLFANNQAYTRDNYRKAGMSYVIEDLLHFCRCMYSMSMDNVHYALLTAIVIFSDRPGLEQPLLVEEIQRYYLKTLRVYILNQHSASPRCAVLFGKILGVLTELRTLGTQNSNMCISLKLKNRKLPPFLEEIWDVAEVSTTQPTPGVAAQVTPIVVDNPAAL
# Sequence (P28702 whole entry partner, the tested form may be a part): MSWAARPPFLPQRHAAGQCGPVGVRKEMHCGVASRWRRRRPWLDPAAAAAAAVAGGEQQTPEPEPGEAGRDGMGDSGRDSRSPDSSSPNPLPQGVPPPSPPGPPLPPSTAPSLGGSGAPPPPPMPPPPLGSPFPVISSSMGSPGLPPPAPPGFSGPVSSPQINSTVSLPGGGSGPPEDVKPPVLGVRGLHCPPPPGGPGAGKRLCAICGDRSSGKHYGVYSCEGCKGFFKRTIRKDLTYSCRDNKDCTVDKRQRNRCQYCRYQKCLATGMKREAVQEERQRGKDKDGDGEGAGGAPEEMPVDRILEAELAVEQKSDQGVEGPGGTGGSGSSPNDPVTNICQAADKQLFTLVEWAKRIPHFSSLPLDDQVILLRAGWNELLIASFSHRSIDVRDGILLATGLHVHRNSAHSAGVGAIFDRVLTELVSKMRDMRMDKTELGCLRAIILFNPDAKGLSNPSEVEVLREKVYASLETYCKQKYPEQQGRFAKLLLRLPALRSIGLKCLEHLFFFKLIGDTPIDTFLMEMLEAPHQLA
# ASSAY_NAME: Two-hybrid gene switch assay, luciferase reporter, MsEcR, mouse NIH3T3 cells
# ASSAY_CONDITIONS: EC50, FIG. 13A/13B, GAL4-EcR(DEF) with VP16-RXR-USP chimera
pEC50: −log10 of the molar value.

Consider the reported pEC50 for these compounds:
C[C@@H](CO)CC[C@@H](O)[C@](C)(O)[C@H]1CC[C@@]2(O)C3=CC(=O)[C@@H]4C[C@@H](O)[C@@H](O)C[C@]4(C)[C@H]3CC[C@]12C [(25R)-inokosterone] | ~5.00
CC1(C)OC(=O)C=C1CC(O)C(C)(O)C1CCC2(O)C3=CC(=O)C4CC(O)C(O)CC4(C)C3CCC12C (centres unmarked) | < 4.48
CC(C)(O)CCC(=O)[C@](C)(O)[C@H]1CC[C@@]2(O)C3=CC(=O)[C@@H]4C[C@@H](O)[C@@H](O)C[C@]4(C)[C@H]3CC[C@]12C [Compound 22-dehydro-20-hydroxyecdysone] | 4.99
CCCCCC(=O)OC1CC2(C)C(C(C)(O)C(O)CCC(C)(C)O)CCC2(O)C2=CC(=O)C3CC(O)C(O)CC3(C)C21 (centres unmarked) [turkesterone-11 a -hexanoate] | < 4.48
CC(=O)C1CCC2(O)C3=CC(=O)C4CC(O)C(O)CC4(C)C3CCC12C (centres unmarked) | < 4.48
C[C@@H]1C(=O)O[C@H](C)[C@H]1C[C@@H](O)[C@](C)(O)[C@H]1CC[C@@]2(O)C3=CC(=O)[C@@H]4C[C@@H](O)[C@@H](O)C[C@]4(C)[C@H]3CC[C@]12C | 5.81
C[C@H](CO)CC[C@@H](O)[C@](C)(O)[C@H]1CC[C@@]2(O)C3=CC(=O)[C@@H]4C[C@@H](O)[C@@H](O)C[C@]4(C)[C@H]3CC[C@]12C [(25S)-inokosterone] | ~5.00
CC(C)(O)C(CCC(C)(O)C1CCC2(O)C3=CC(=O)C4CC(O)C(O)CC4(C)C3CCC12C)OC(=O)c1ccc[nH]1 (centres unmarked) | < 5.00

Sample CC(C)CC[C@@H](O)[C@](C)(O)[C@H]1CC[C@@]2(O)C3=CC(=O)[C@@H]4C[C@@H](O)[C@@H](O)C[C@]4(C)[C@H]3[C@H](O)C[C@]12C ; pEC50 observed: ~5.15

CC(C(O)CCC(C)(C)O)C1CCC2(O)C3=CC(=O)C4CC(O)CCC4(C)C3CCC12C (centres unmarked) yielded pEC50 of < 4.48

pEC50 measured on CC(C)(O)CC[C@@H](OC(=O)c1ccc[nH]1)[C@](C)(O)[C@H]1CC[C@@]2(O)C3=CC(=O)[C@@H]4C[C@@H](O)[C@@H](O)C[C@]4(C)[C@H]3CC[C@]12C = < 4.48
